# Tested on: Ruminococcus gnavus DSM 108212
# measurement_notes: fold change of Tryptamine concentration vs plate DMSO controls (fold change (ratio)); higher = more amine produced, active = hit call of the paper (significant change in both replicates, either direction)
# condition: 20 µM; incubation time: 27 h, anaerobic, 37 °C
Where a name gives a salt, the structure may show the parent alone.
Property: fold change of Tryptamine concentration; scope: individual compounds
Respond using a number only.

Completed entries (count: 5):
>  <compound>
Oc1ccccc1-c1ccccc1

>  <system_name>
Ruminococcus gnavus DSM 108212

>  <value_observed>
0.973

$$$$
>  <compound>
C#C[C@]1(O)CC[C@H]2[C@@H]3CCC4=CC(=O)CC[C@]4(C)[C@H]3CC[C@@]21C [Ethisterone]

>  <system_name>
Ruminococcus gnavus DSM 108212

>  <value_observed>
1

$$$$
>  <compound>
CC(C)(C)NCC(O)c1cc(Cl)c(N)c(Cl)c1 (stereo unspecified) [Clenbuterol hydrochloride]

>  <system_name>
Ruminococcus gnavus DSM 108212

>  <value_observed>
1.02

$$$$
>  <compound>
C[C@]12CC[C@H](O)CC1=CC[C@@H]1[C@@H]2CC[C@]2(C)C(=O)CC[C@@H]12 [Prasterone]

>  <system_name>
Ruminococcus gnavus DSM 108212

>  <value_observed>
0.985

$$$$
>  <compound>
CCCN(CCOc1c(Cl)cc(Cl)cc1Cl)C(=O)n1ccnc1

>  <system_name>
Ruminococcus gnavus DSM 108212

>  <value_observed>
1.02

$$$$

Input line: Request the reported fold change of Tryptamine concentration associated with Nc1nc(N)nc(N)n1 [Melamine]
Output line: 1.01
